# TARGET OF ASSAY: T1, human ACTH 1-39 (human, not fully specified; N-terminal biotin in the ELISA and HTRF binding assays (p-1487, p-1488); 125I on Tyr23 in Example 9 (p-1542); unlabelled in SPR. Letters unchanged.)
# T1 peptide: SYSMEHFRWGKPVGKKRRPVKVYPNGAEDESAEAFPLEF
# METHOD: cell-based or functional assay
OBSERVABLE: IC50, ACTH-induced cortisol, Y1 cells

* Ab6 (antibody, V domains shown) VH: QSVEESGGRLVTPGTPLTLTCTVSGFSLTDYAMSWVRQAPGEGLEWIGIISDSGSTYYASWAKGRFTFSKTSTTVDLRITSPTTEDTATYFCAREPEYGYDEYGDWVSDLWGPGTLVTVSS VL: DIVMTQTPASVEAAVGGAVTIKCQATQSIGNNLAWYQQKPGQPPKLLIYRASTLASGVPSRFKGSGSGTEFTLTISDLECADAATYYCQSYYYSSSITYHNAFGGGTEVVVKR | 1.44 nM

// query State, in one line, measured IC50, ACTH-induced cortisol, Y1 cells of Ab12 (antibody, V domains shown) VH: QSVEESGGRLVTPGTPLTLTCTVSGSSLSDYDMIWVRQAPGKGLESIGIIYDDGDTYYATWAKGRFTISKTSTTVDLRIISPTTEDTATYFCVKGVSNMWGPGTLVTVSS VL: DVVMTQTPSSVSAAVGGTVTIKCQASQSIGSSLAWYQQKPGQRPKLLIYAASTLASGVPSRFKGSGSGTEFTLTISDLECADAATYYCQSYDGSSSSSYGVGFGGGTEVVVKR
// result 2.68 nM

// query State, in one line, measured IC50, ACTH-induced cortisol, Y1 cells of Ab1 (antibody, V domains shown, Full-length rabbit/human chimeric antibody, HEK-293) VH: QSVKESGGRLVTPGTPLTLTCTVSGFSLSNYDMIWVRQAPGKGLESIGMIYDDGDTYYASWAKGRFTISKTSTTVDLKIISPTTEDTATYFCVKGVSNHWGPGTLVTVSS VL: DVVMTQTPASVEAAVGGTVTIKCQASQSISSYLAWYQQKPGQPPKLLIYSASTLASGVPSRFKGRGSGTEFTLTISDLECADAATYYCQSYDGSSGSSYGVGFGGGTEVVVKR
// result 2.36 nM
